Biological target: T1, sf-GFP-mATGL288 (mouse ATGL residues 1-288 fused to superfolder GFP) (mouse, UniProt Q8BJ56 1-288)
T1 construct: mouse adipose triglyceride lipase (ATGL), residues 1-288, patatin domain-containing region, in pST50; The functional (TGH) rows used mATGL288 without sf-GFP in an E. coli lysate; the same ATGL stretch, so they are written on this molecule; also called mATGL_1-288; source: E. coli ArcticExpress (DE3), purified (Strep Trap HP, ResourceQ, Superdex 200 Increase); not shown: superfolder GFP, …
T1 sequence (looked up): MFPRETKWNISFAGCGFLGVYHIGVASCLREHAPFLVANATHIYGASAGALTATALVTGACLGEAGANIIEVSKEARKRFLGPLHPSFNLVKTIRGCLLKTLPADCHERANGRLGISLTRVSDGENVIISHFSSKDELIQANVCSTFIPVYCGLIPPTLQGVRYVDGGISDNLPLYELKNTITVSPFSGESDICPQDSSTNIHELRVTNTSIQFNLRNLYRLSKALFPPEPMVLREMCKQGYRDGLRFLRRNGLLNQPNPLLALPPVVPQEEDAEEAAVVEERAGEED
Assay: MST; Monolith NT.115; smt3-tagged hHILPDA 1.1 μM to 487 μM titrated against 0.01 μM sf-GFP-mATGL_288; 20 mM phosphate, 300 mM NaCl, 1 mM EDTA, 1 mM DTT pH 7.0, 1% BSA; room temperature; triplicate
Settings: both partners purified
pKd: −log10 of the molar value.
parameter: pKd

[[record]]
binder = "6XHis-smt3-TEV-hHILPDA (human hypoxia-inducible lipid droplet-associated protein, full length) (natural protein, UniProt Q9Y5L2 1-63, looked up, human HILPDA (Hig-2), 63 amino acids, construct hHILPDA_1-63 in a modified pSUMO vector with 6XHis tag and TEV site; The fusion protein (22 kDa) was used without removal of smt3; a TEV site lies between smt3 and HILPDA; also called smt3-HILPDA fusion protein; source: E. coli BL21-CodonPlus (DE3)-RIL, purified (HisTrap FF, Superdex 200); not shown: smt3, N-terminal, kept) MKHVLNLYLLGVVLTLLSIFVRVMESLEGLLESPSPGTSWTTRSQLANTEPTKGLPDHPSRSM"
parameter = "pKd"
recorded_number = 3.61

